Origin of the recorded values: paper PMC3928003

Sequence of the target: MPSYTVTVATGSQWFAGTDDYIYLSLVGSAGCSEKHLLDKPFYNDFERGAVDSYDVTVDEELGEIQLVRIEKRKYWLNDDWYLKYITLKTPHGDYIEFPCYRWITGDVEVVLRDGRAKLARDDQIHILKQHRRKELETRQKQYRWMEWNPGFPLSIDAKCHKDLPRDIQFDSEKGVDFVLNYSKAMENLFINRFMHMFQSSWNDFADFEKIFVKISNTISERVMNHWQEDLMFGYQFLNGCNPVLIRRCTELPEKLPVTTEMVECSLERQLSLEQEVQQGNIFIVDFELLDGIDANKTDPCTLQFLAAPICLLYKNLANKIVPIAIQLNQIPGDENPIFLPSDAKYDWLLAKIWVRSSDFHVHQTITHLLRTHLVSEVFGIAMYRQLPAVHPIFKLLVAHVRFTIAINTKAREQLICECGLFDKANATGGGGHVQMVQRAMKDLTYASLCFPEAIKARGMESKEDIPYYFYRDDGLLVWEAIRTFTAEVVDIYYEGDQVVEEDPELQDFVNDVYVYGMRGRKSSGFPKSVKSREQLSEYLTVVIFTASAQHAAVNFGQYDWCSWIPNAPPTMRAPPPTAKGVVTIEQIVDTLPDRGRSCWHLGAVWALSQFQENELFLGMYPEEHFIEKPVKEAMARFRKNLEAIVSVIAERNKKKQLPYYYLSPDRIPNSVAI
pIC50: −log10 of the molar value.
experimental_endpoint: pIC50

Q) Give its pIC50 value. Item: O=C1Nc2ccccc2/C1=C1/Nc2ccccc2/C1=N\O
A) 5.00 to 5.11
